experiment: qHTS for Inhibitors of human tyrosyl-DNA phosphodiesterase 1 (TDP1): qHTS in cells in presence of CPT; details: chicken DT40 Tdp1-/-;hTDP1 cells + 20 nM CPT, ATP luminescence, 48 h; series mostly up to 46.2 µM; further: nearly all actives have a fitted effect of over 55% in size
The campaign covered roughly 420,000 compounds. About 50,000 (12%) were called active. Roughly 26% stayed inconclusive and do not appear here. The call rests on the fitted dose curve; in most records, active means well fitted inhibition curve with a large enough effect; inconclusive means small, poorly fitted or top-dose-only effect; inactive means flat fitted curve, though single readings scatter. For the sample, actives were picked, then their nearest neighbours and some compounds at random.
Would you mind answering with one of these outcomes? Y (active), N (inactive)

The examples below pair each entry with its known result.
[
  {
    "molecule": "Cc1nn(C)c(C)c1C(C)NC(=O)c1ccc(OC2CCN(Cc3ccccn3)CC2)cc1 (stereo unspecified)",
    "group": "N"
  },
  {
    "molecule": "CCOc1cc(CNCc2ccccn2)ccc1OCC(=O)NC(C)(C)C",
    "group": "N"
  },
  {
    "molecule": "CN(C(=O)CSc1nnc(C2CC2)n1C)C1CCCc2ccccc21 (stereo unspecified)",
    "group": "N"
  },
  {
    "molecule": "O=S(=O)(NCC(c1ccco1)N1CCOCC1)c1cc(F)ccc1F (stereo unspecified)",
    "group": "N"
  },
  {
    "molecule": "Cc1cc(C)c(S(=O)(=O)Nc2c(C)n(C)n(-c3ccccc3)c2=O)cc1[N+](=O)[O-]",
    "group": "N"
  },
  {
    "molecule": "CCOC(OCC)c1ccc(/C=C\\c2nccc(N)n2)cc1",
    "group": "N"
  },
  {
    "molecule": "CCOc1ccc(NS(=O)(=O)c2ccc(C(=O)NCC(c3ccccc3OC)N3CCCC3)cc2)cc1 (stereo unspecified)",
    "group": "Y"
  },
  {
    "molecule": "CCOc1ccc(N=C2NC(=O)S/C2=C\\c2ccc(O)cc2)cc1",
    "group": "N"
  }
]

Per the records of this test, what outcome belongs to CN1CCN2c3ccccc3Cc3ccccc3[C@@H]2C1 ?
Y

Status in this test for COc1ccc(C(CNC(=O)c2ccc(OCc3cscn3)cc2)N2CCCC2)cc1 (stereo unspecified) ?
N

What did the test return for CCOc1[nH]n(-c2ccc(Cl)cc2)c(=O)c1C=Nc1ccc(O)cc1 ?
Y

====

Assay: qHTS for Inhibitors of human tyrosyl-DNA phosphodiesterase 1 (TDP1): qHTS in cells in presence of CPT; further: nearly all actives have a fitted effect of over 55% in size
Settings: chicken DT40 Tdp1-/-;hTDP1 cells + 20 nM CPT, ATP luminescence, 48 h; series mostly up to 46.2 µM
Procedure: Human tyrosyl-DNA phosphodiesterase 1 (TDP1) is a novel repair gene, and we propose to use it as a new target for anticancer drug development. […] For the primary screen, Tdp1-/-;hTDP1 cells will be exposed to small molecules in the presence or absence of CPT, and their growth kinetics will be evaluated after 48 hours by measuring ATP activity. […] The hit compounds will then be evaluated in the presence or absence of CPT using Tdp1-/- cells. […]
The whole screen tested about 420,000 compounds, of which about 50,000 (12%) were called active. About 26% were inconclusive and are not listed. Calls come from the whole dose curve; as a rule, active = well fitted inhibition curve with a large enough effect; inconclusive = small, poorly fitted or top-dose-only effect; inactive = flat fitted curve, though single readings scatter. Only a selection was taken, and actives are over-represented in it overall.
Please answer using one outcome listed in active, inactive

See these solved cases before continuing.
[
  {
    "cpd.smiles": "O=C(CN1CCN(c2ccc(F)cc2)CC1)Nc1ccccc1",
    "group": "inactive"
  },
  {
    "cpd.smiles": "COc1ccc(-c2ccc(=O)n(CC(=O)Nc3ccc(Br)cc3F)n2)cc1",
    "group": "inactive"
  },
  {
    "cpd.smiles": "O=C(NCc1ccccc1)C1CCN(S(=O)(=O)c2ccc3[nH]c(=O)ccc3c2)CC1",
    "group": "inactive"
  },
  {
    "cpd.smiles": "Cc1cccc(C)c1NC(=O)CN1CCN(c2ccc(F)cc2)CC1",
    "group": "active"
  },
  {
    "cpd.smiles": "O=C(CN1CCN(c2ccccc2)CC1)Nc1ccc(F)cc1",
    "group": "inactive"
  }
]

Recorded test outcome, item Cc1ccc(S(=O)(=O)N(C)C)cc1NC(=O)c1n[nH]c(=O)c2ccccc12
active

The measured values listed here are drawn from PubChem BioAssay AID686979.
